test: chemical genetic growth profiling, strain panel (AID 1159580);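 further: tested at 20 µM; growth read once vehicle control cultures reached saturation at 30 °C; 1 = growth at the plate median or of vehicle wells; lower values mean less growth of the strain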
run conditions: S. cerevisiae deletion strains, growth OD, locus YGL167C, strain pmr1, active compounds read low
Where a name gives a salt, the structure may show the parent alone. Hit rate of the full screen: of about 5,500 compounds, about 2,000 (36%) were called active. Inconclusive results (about 18%) are left out. Some of the results follow. Where a SMILES comes first, the peptide text is derived from it. The star is where a group is joined. Tfa = O=C(C(F)(F)F)*
measurement type: normalized growth
Enter a number only.

The following compounds have reported results that may help.
NS(=O)(=O)c1cc2c(cc1Cl)NC(C(Cl)Cl)NS2(=O)=O (configuration not stated) ... 0.963
O=C(O)c1ccccc1-c1c2cc(Br)c(=O)cc-2oc2[c]([Hg])c(O)c(Br)cc12 ... 1.06
C[N+]1(C)C2CC(OC(=O)[C@@H](CO)c3ccccc3)CC1C1OC12 (some centres not stated) ... 0.964
O=C(O)CN(CC(=O)O)Cc1cc2c(-c3ccccc3C(=O)O)c3cc(CN(CC(=O)O)CC(=O)O)c(=O)cc-3oc2cc1O ... 0.967
O=S1OCC2C(CO1)C1(Cl)C(Cl)=C(Cl)C2(Cl)C1(Cl)Cl (configuration not stated) ... 0.989
N[C@@H](CC(=O)N1CCn2c(nnc2C(F)(F)F)C1)Cc1cc(F)c(F)cc1F ... 0.964
CC(C)C(C)/C=C/C(C)C1CCC2C3=CC=C4CC(O)CCC4(C)C3CCC21C (configuration not stated) ... 0.998
C=C1CCC(OC(C)=O)/C(C)=C/C[C@@H]2[C@@H]1CC2(C)C (some centres not stated) ... 1.02
O=c1cc[nH]c(=S)[nH]1 ... 1
CC1C[C@H]2CC(=O)[C@H]3CCCN4CCC[C@H]2[C@]34C1 (some centres not stated) ... 1.01

Need normalized growth of CC(C(=O)O)c1ccc(C(=O)c2cccs2)cc1 (configuration not stated) , thanks.
0.994

Next up: CCCCN1CCCCC1C(=O)Nc1c(C)cccc1C (configuration not stated)
0.992

And the next one, COC(=O)C(O)c1ccccc1 (configuration not stated) ?
0.995

Now consider CCCCNc1ccc(C(=O)OCCN(C)C)cc1 .
1.01

Then CC(C)C(NC(=O)C(Cc1ccc(O)cc1)NC(=O)C(NC(=O)C(F)(F)F)C(C)C)C(=O)O (stereo not drawn) (Tfa-Val-Tyr-Val-OH; configuration not given here) ?
0.985

How about this compound: CCCCC(=O)Oc1ccccc1C(=O)O
0.957

Same again, this time with COC(=O)C[C@H]1C(C)(C)C(=O)[C@@H]2CC3=C(CC[C@]4(C)C3=CC(=O)O[C@H]4c3ccoc3)[C@@]1(C)C2=O
0.988

Next compound: O=c1cc(-c2ccccc2O)oc2cc(O)ccc12
0.972

Okay, and CCCCCCOc1ccccc1C(N)=O ?
0.92

Please give the result for CCN(CC)CCOC(=O)c1ccc(N)cc1 too.
0.997

Same thing, different compound: CCCCN(CCCC)CCCOC(=O)c1ccc(N)cc1
0.991

Same read-out for CC(C)C(C)/C=C/C(C)[C@H]1CCC2C3=CCC4CC(=O)CC[C@]4(C)C3CC[C@@]21C (some centres not stated) ?
0.995
